test name: AUC (0 to infinity) in healthy human at […] administered via nasogastric tube by ITT analysis
Format: ADME, organism-based
Parameters: route nasogastric, time infinity
settings: plasma, po

{"smiles record": "CC[C@@H]([C@H](C)O)n1ncn(-c2ccc(N3CCN(c4ccc(OC[C@@H]5CO[C@@](Cn6cncn6)(c6ccc(F)cc6F)C5)cc4)CC3)cc2)c1=O", "AUC(0-inf)": "7210 ng·h/mL"}

---

test name: Cmax in healthy human at 400 mg, po
settings: in vivo

{"smiles record": "CC[C@@H]([C@H](C)O)n1ncn(-c2ccc(N3CCN(c4ccc(OC[C@@H]5CO[C@@](Cn6cncn6)(c6ccc(F)cc6F)C5)cc4)CC3)cc2)c1=O", "Cmax, ng/mL": 324}
